Every entry's value here was drawn from patent US20050020492A1.

Molecular target: human MCH-1R (human, UniProt Q99705 1-353)
Sequence (Q99705 whole entry): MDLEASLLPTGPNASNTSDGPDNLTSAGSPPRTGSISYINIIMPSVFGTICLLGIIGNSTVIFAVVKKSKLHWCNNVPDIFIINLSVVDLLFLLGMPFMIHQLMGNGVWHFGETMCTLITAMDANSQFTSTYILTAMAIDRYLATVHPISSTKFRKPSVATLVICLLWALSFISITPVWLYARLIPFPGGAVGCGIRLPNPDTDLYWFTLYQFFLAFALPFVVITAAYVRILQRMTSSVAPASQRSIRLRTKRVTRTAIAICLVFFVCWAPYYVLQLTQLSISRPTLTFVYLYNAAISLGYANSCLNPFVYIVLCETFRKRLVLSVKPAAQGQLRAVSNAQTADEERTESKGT
Assay: cell-based or functional assay
Positions of bridges follow the written chain, without caps; N, C: chain ends. Non-standard residues stand in square brackets, D forms with d. No end group written: not given here. Cha = N[C@@H](CC1CCCCC1)C(=O)O
Reported endpoint: Activation %, aequorin bioluminescence (%)

Example binders with recorded Activation %, aequorin bioluminescence:
DFDMLRCMLGRVYRPCWQV (disulfide 7-16 (inferred)) [human MCH] | 100
Ac-RCMLGRVYRPC-NH2 (disulfide 2-11 (inferred), also called ID; NO; parent compound) [Ac-hMCH(6-16)-NH2] | 99
Ac-RCMLNRVYRPC-NH2 (disulfide 2-11 (inferred), also called Asn^10 peptide) [SEQ. ID. NO. 25 (Asn^10 analog of Ac-hMCH(6-16)-NH2)] | 126
Ac-RCMLERVYRPC-NH2 (disulfide 2-11 (inferred), also called Glu^10 peptide) [SEQ. ID. NO. 28 (Glu^10 analog of Ac-hMCH(6-16)-NH2)] | 21
RCMLXRVYRPC (HELM PEPTIDE1{[ac].R.C.M.L.[O=C([C@H](Cc1ccc2ccccc2c1)N[*:1])[*:2]].R.V.Y.R.P.C.[am]}$PEPTIDE1,PEPTIDE1,3:R3-12:R3$$$V2.0; SMILES CSCC[C@@H]1NC(=O)[C@@H](NC(=O)[C@H](CCCNC(=N)N)NC(C)=O)CSSC[C@@H](C(N)=O)NC(=O)[C@@H]2CCCN2C(=O)[C@H](CCCNC(=N)N)NC(=O)[C@H](Cc2ccc(O)cc2)NC(=O)[C@H](C(C)C)NC(=O)[C@H](CCCNC(=N)N)NC(=O)[C@H](Cc2ccc3ccccc3c2)NC(=O)[C@H](CC(C)C)NC1=O) [SEQ. ID. NO. 21 (Nal(2′)^10 analog of Ac-hMCH(6-16)-NH2)] | 7
Ac-RCMLARVYRPC-NH2 (disulfide 2-11 (inferred)) [SEQ. ID. NO. 16 (Ala^10 analog of Ac-hMCH(6-16)-NH2)] | 121

1. RCMLXRVYRPC (N-terminal acetyl; Nle (norleucine) at position 10; C-terminal amide; disulfide cycle) [SEQ. ID. NO. 18 (Nle^10 analog of Ac-hMCH(6-16)-NH2)]
2. Ac-RCMLPRVYRPC-NH2 (disulfide 2-11 (inferred)) [SEQ. ID. NO. 22 (Pro^10 analog of Ac-hMCH(6-16)-NH2)]
Please tell me which of the two, 1 or 2 , has the higher reported Activation %, aequorin bioluminescence value. Let me know the label of the one you choose. 1

a. Ac-RCML[Cha]RVYRPC-NH2 (disulfide 2-11) [SEQ. ID. NO. 19 (Cha^10 analog of Ac-hMCH(6-16)-NH2)]
b. Ac-RCMLSRVYRPC-NH2 (disulfide 2-11 (inferred), also called Ser^10 peptide) [SEQ. ID. NO. 26 (Ser^10 analog of Ac-hMCH(6-16)-NH2)]
c. Ac-RCMLKRVYRPC-NH2 (disulfide 2-11 (inferred)) [SEQ. ID. NO. 24 (Lys^10 analog of Ac-hMCH(6-16)-NH2)]
d. Ac-RCMLRRVYRPC-NH2 (disulfide 2-11 (inferred)) [SEQ. ID. NO. 23 (Arg^10 analog of Ac-hMCH(6-16)-NH2)]
Rank entries according to their Activation %, aequorin bioluminescence, from the largest number down. // list labels; follow requested order b, a, c, d

1. Ac-RCMLLRVYRPC-NH2 (disulfide 2-11 (inferred)) [SEQ. ID. NO. 17 (Leu^10 analog of Ac-hMCH(6-16)-NH2)]
2. Ac-RCMLFRVYRPC-NH2 (disulfide 2-11 (inferred)) [SEQ. ID. NO. 20 (Phe^10 analog of Ac-hMCH(6-16)-NH2)]
Which shows the larger Activation %, aequorin bioluminescence value: 1 or 2 ? Your choice should be expressed through its label. 1
(1: 123%, 2: 75%)
